# key: entry, value: phosphorylation enrichment
Test system: c-Src
Assay: phosphorylation enrichment, bacterial display (enrichment ratio); higher = better substrate or ligand; peptides without Tyr show the background
Answer as a number with no unit attached.

HRGFLYLAIEY [TEK_Y899_Y897F]
0.541

From here, focus on the item given below.
Dear colleague, I am looking for the recorded phosphorylation enrichment of the following sequence: LDCNEYFRDLN [HPRT1_Y198_Y195C]
0.487

* * *

System: c-Src
Assay: phosphorylation enrichment, bacterial display (enrichment ratio); higher = better substrate or ligand; peptides without Tyr show the background
# key: entry, value: phosphorylation enrichment

Solved entries (count: 5):
PLDGEYLTLQI [TP53_Y327_F328L]
1.14
IFETDYFQKGG [INSR_Y1189_R1191Q_YF]
0.492
SLHPGYNFRYA [P2RX7_Y291_Y288H]
0.454
SHRQDYLVGNK [GSTA1_Y147_G144R]
0.385
SCRENYSDSEE [LEMD3_Y258]
0.475

Entry KLQKFYRKNPD [EHHADH_Y683_Q685K_YF] , system c-Src: what phosphorylation enrichment was measured?
0.48

Also LLKAGYQGVLR [TTPA_Y100_H101Q] , if possible.
0.311

Also TKDTFYQQPMF [GBA_Y451_K452Q] , if possible.
0.639

Also REHTVYGEPRK [MAGEA4_Y240] , if possible.
0.599

Also RALCHYFKLNI [ETV6_Y401_R399C_YF] , if possible.
0.667

Also VTRLRYPVCFG [ITK_Y336] , if possible.
0.467

Also GCVRMYELVHR [GLE1_Y135] , if possible.
0.761

Also RGEEPYTKKAL [TTC21B_Y160_K157E] , if possible.
0.383

Also RRNTPYSQTMK [TET2_Y819_S817T] , if possible.
0.44

* * *

# key: entry, value: phosphorylation enrichment
Target: Hck (UniProt P08631)
Sequence (P08631 whole entry, looked up): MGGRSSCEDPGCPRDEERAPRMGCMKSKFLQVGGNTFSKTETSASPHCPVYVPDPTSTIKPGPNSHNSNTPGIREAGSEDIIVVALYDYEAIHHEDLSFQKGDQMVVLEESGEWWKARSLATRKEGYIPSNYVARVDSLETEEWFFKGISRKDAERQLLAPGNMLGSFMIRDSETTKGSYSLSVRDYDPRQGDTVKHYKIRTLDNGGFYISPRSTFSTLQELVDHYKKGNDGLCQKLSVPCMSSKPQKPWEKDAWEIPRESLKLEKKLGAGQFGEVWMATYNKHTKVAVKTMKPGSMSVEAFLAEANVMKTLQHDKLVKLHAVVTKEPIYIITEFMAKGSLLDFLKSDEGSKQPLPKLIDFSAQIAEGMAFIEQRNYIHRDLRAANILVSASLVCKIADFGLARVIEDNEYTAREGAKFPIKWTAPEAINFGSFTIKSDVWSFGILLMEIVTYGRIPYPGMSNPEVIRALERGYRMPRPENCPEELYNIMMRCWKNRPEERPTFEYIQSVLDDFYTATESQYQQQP
Experiment: phosphorylation enrichment, bacterial display (enrichment ratio); higher = better substrate or ligand; peptides without Tyr show the background
Answer as a number with no unit attached.

Solved entries (count: 6):
TKQLTYEEQFL [PIK3C3_Y310_D314Y_YF]
0.419
LAIERYVVVCK [RHO_Y136]
0.862
PLDGEYLTLQI [TP53_Y327_F328L]
0.927
LSDGPYSNPFE [EPOR_Y485_YF]
0.843
EAIMTYVSSFF [ACTN4_Y260_K255E_YF]
0.643
EFISEYCGEII [EZH2_Y641]
0.664

Dear colleague, I am looking for the recorded phosphorylation enrichment of the following sequence: HRNGMYGLHQD [SGSH_Y89_Q85R]
0.294

Also AGTILYHAHLG [ASS1_Y291_D296G] , if possible.
0.61

* * *

Molecular target: Fyn (UniProt P06241)
Sequence (P06241 whole entry, looked up): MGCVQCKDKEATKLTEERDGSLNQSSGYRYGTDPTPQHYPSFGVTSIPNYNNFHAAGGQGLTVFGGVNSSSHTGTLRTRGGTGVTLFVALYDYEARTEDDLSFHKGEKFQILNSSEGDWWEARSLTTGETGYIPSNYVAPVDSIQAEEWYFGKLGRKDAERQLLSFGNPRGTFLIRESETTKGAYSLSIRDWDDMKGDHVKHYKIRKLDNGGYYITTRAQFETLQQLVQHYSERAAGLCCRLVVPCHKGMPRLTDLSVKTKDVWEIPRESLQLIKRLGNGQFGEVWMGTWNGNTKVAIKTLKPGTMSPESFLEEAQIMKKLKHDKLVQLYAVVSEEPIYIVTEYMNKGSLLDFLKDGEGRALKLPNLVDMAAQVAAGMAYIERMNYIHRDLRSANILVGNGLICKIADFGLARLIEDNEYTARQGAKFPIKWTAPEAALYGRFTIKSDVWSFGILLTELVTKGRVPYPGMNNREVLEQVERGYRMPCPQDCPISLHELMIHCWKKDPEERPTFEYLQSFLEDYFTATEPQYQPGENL
Experiment: phosphorylation enrichment, bacterial display (enrichment ratio); higher = better substrate or ligand; peptides without Tyr show the background
endpoint: phosphorylation enrichment

Solved entries (count: 5):
RALCHYFKLNI [ETV6_Y401_R399C_YF]
0.54
FLAATYPTLGQ [NF1_Y2508_V2511L_YF]
0.422
MPLTEYLKQIK [CNGB3_Y200_R203Q]
0.448
RESYKYLPSSL [CXXC1_Y218_F219L]
0.59
SAEKAYHEQFS [TUBA1A_Y282_L286F]
0.519

Dear colleague, I am looking for the recorded phosphorylation enrichment of the following sequence: LMIKEYLTKEL [BAG3_Y457_E455K]
0.469

Also PIGRKYKKVRF [F8_Y442_R437P] , if possible.
0.763

Also GCKNRYDEDKP [THAP1_Y14_K16E] , if possible.
0.49

Also PYVYYYSYLLK [PTEN_Y178_R173P] , if possible.
1.88

Also MTYMFYRENLR [NLRP14_Y443_V441M] , if possible.
1.48

Also GMTLSYLFWEP [NDUFS8_Y74_R77W] , if possible.
0.501

Also CTSIHYNYMCN [TP53_Y234_T231S] , if possible.
0.42

Also TYGVAYRAKDK [CDK11B_Y453_V452A] , if possible.
0.812

* * *

Tested on: Fer (mouse)
Test: phosphorylation enrichment, bacterial display (enrichment ratio); higher = better substrate or ligand; peptides without Tyr show the background
# key: entry, value: phosphorylation enrichment
Answer as a number with no unit attached.

Entry VNNLVYENING [FRS2_Y306_K303N] , system Fer (mouse): what phosphorylation enrichment was measured?
11.8

Also ADLTEYLSTHF [UQCRC1_Y219_YF] , if possible.
0.493

Also ETKKQYNSFTY [TMED3_Y85_D86N] , if possible.
0.434

* * *

Target: SHP2-C SH2
Assay: SH2 binding enrichment of the phosphorylated peptide, bacterial display (enrichment ratio); higher = better substrate or ligand; peptides without Tyr show the background
# key: entry, value: SH2 binding enrichment
Answer as a number with no unit attached.

FDNPIYQKTTE [LDLR_Y828_V827I]
0.966
PQAVRYIYTID [DCX_Y103_G100A]
17.1
AEARMYGVLPW [PLP1_Y207_D203E]
0.871
DVQNEYDSNHC [ZFYVE16_Y36_A35E]
0.692
LVRPPYSFSAL [FOXI1_Y126_YF]
0.562

Entry LKGQVYILGWE [ASS1_Y359_R363W] , system SHP2-C SH2: what SH2 binding enrichment was measured?;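 note: peptide library displayed on the E. coli surface as eCPX fusions, selected cells deep-sequenced, score is each peptide's frequency after selection divided by its frequency in the input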
0.827

Also DPGVSYRTREE [PDHA1_Y301] , if possible.
0.844

Also MENFIYESMQY [CYP19A1_Y361_R365Q] , if possible.
0.954

Also YGMSTYITRED [FNDC3B_Y180] , if possible.
0.576

Also ASRKFYAMKIL [AKT3_Y174_G171R_YF] , if possible.
0.679

Also GYQPDYGQPAG [SYP_Y278] , if possible.
0.702

* * *

Target: MERTK (UniProt Q12866)
Sequence (Q12866 whole entry, looked up): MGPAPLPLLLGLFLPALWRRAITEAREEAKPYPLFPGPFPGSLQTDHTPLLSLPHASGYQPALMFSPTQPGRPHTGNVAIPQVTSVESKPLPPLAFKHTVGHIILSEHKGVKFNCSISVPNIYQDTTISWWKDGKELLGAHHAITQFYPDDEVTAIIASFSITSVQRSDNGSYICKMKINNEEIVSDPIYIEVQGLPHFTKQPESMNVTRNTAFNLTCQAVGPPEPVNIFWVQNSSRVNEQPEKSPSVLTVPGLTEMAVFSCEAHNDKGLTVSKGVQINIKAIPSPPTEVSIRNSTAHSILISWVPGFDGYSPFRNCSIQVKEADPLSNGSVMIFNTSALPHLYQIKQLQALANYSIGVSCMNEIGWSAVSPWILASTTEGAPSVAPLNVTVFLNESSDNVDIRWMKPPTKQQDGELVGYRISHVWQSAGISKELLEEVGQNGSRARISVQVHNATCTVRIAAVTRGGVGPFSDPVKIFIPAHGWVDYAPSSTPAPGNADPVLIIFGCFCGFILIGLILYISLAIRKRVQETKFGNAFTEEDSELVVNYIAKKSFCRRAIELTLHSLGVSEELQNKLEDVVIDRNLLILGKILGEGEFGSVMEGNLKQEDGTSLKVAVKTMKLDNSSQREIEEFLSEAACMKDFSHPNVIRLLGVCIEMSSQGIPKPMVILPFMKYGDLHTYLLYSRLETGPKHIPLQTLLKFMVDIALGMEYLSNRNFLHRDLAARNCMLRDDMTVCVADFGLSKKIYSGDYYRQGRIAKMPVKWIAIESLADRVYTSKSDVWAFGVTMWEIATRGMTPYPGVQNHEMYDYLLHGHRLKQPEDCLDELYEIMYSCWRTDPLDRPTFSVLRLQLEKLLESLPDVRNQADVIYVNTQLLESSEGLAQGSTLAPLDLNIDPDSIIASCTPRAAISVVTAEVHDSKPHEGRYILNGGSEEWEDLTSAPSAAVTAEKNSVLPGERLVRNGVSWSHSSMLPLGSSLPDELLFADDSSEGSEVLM
Experiment: phosphorylation enrichment, bacterial display (enrichment ratio); higher = better substrate or ligand; peptides without Tyr show the background
endpoint: phosphorylation enrichment

EYQLPYYNTVP [BMPR1A_Y457_M460T]
2.31

Entry DKATEYSQFMR [MAX_Y70_I71S_YF] , system MERTK (UniProt Q12866): what phosphorylation enrichment was measured?
0.423

Also SLNEEYAKNKT [MSH2_Y563_T564A] , if possible.
0.43

Also RIAFQYGDTDL [MYBPC3_Y340_V342D] , if possible.
0.544

Also EPYEVYRIVPE [IRF8_Y110_K108E] , if possible.
1.05

Also LAIERYVVVCK [RHO_Y136] , if possible.
0.732

Also EQAERYDDMAA [YWHAG_Y20] , if possible.
0.407

Also GVRYTYTIDGS [DCX_Y105_I104T] , if possible.
0.447

Also GDGRFYMMEAI [PGM1_Y66_K68M] , if possible.
0.46

Also SCRENYSYSEE [LEMD3_Y258_D260Y] , if possible.
0.428

Also LRVKMYNFLRS [ADGRG7_Y760] , if possible.
1.19

* * *

# key: entry, value: phosphorylation enrichment
Target: Fes (UniProt P07332)
Sequence (P07332 whole entry, looked up): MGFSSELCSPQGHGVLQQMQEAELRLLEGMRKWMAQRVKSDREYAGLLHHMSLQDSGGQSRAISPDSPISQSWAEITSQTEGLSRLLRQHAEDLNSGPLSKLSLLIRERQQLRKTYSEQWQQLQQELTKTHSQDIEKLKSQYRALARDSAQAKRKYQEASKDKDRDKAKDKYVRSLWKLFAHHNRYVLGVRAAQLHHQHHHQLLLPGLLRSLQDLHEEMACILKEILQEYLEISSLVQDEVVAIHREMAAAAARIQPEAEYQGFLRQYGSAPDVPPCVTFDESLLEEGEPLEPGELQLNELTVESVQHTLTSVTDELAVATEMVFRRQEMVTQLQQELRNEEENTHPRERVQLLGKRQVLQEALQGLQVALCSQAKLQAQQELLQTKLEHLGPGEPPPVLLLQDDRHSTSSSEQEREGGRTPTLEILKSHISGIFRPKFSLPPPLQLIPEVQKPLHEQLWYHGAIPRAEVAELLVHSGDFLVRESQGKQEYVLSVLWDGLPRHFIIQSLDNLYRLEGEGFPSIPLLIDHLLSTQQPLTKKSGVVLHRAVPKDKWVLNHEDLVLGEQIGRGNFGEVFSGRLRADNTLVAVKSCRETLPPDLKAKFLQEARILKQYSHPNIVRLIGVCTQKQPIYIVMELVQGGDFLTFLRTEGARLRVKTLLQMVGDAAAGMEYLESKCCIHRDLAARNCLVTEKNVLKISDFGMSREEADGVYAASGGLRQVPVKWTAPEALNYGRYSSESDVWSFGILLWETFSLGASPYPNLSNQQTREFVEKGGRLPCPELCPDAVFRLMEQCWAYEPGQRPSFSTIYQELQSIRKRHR
Test: phosphorylation enrichment, bacterial display (enrichment ratio); higher = better substrate or ligand; peptides without Tyr show the background
Answer as a number with no unit attached.

Solved entries (count: 5):
PGIRMYRVQFN [LRFN1_Y454_Q455R_YF]
1.14
FTRNFYVWAVL [CYBA_Y88_R90W_YF]
1.42
RLQEGYDHSYY [ESD_Y258]
1.01
ESFCLYPPVPQ [CYP4B1_Y377_R375C]
1.12
PSDLLYIPDIQ [ITGA2B_Y845_L847P]
1.77

Dear colleague, I am looking for the recorded phosphorylation enrichment of the following sequence: HLEKKYVRRDS [CSF1R_Y708]
4.2

Also VSGIPYSQPKQ [NEU1_Y251_G252S] , if possible.
0.474

Also EHTTLYSNNST [KANSL1_Y223] , if possible.
0.65

Also NHRNQYQALKT [CLSPN_Y887_P892T] , if possible.
0.656

Also RQRTAYFSLDT [CDH1_Y68] , if possible.
0.767

Also GKVFIYHGSSL [ITGA7_Y458] , if possible.
1.3

Also HSFNSYTFPRL [PAK5_Y316_YF] , if possible.
1.74

Also LNERHYGALIG [BPGM_Y92] , if possible.
0.609

Also LWQTIYNLEAE [TNNT2_Y251_S249T] , if possible.
2.22
